Values from ChEMBL document CHEMBL1134845

System: PC-3
Experiment: Growth inhibitory activity was determined against PC-3 cancer cell line of Prostate cancer
Assay type: functional
Assay Setup: Homo sapiens
Endpoint Name: GI50 (µM)

1) CC(C)CCCC(C)[C@H]1CC[C@H]2[C@H](CC(=O)O)[C@@H]([C@@]3(C)CC[C@@H](CC#N)O3)CC[C@]12C (stereo partly drawn) : 7.77

[P] CC(C)CCC[C@@H](C)[C@H]1CC[C@H]2[C@@H]3CC(=O)O[C@](C)(CCCCC(=O)O)[C@H]3CC[C@]12C
[Q] CC(C)CCC[C@@H](C)[C@H]1CC[C@H]2[C@@H]3CC(=O)N4C(=O)C=CCC[C@]4(C)[C@H]3CC[C@]12C
Identify the item whose GI50 is the smaller number: P or Q Your answer should be the label attached to the chosen record.
Q
(Q: 4.22 µM, P: 7.21 µM)

====

Tested on: PC-3
Experiment: Growth inhibitory activity was determined against PC-3 cancer cell line of Prostate cancer
Assay type: functional
Assay Setup: Homo sapiens
Endpoint Name: GI50 (µM)

1) CC(C)CCCC(C)[C@H]1CC[C@H]2[C@H](CC(=O)O)[C@@H](C(C)CCCCC#N)CC[C@]12C (stereo in doubt; 21) : 7.15
2) C=C(CCCCC#N)[C@H]1CC[C@]2(C)[C@@H]([C@H](C)CCCC(C)C)CC[C@H]2[C@@H]1CC(=O)O : 7.36

[I] CC(C)CCC[C@@H](C)[C@H]1CC[C@H]2[C@@H]3CC(=O)O[C@](C)(CCCCC#N)[C@H]3CC[C@]12C
[II] CC(C)CCC[C@@H](C)[C@H]1CC[C@H]2[C@H](CC(=O)O)[C@@H]([C@@]3(C)CCCCC3=O)CC[C@]12C
[III] CC(C)CCCC(C)[C@H]1CC[C@H]2[C@@H]3CC(=O)O[C@](C)(CC/C=C\C#N)[C@H]3CC[C@]12C (stereo not given in full)
Which order do these items take when sorted by rising GI50? List them. Put the labels in the order asked and list them.
I, III, II
(I: 5.51 µM, III: 9.73 µM, II: 16 µM)

====

Test system: HCC 2998
Experiment: Growth inhibitory activity was determined against HCC2998 cancer cell line colon cancer
Format: functional, Homo sapiens
Assay Setup: Homo sapiens, HCC 2998
Endpoint Name: GI50 (µM)

[a] CC(C)CCC[C@@H](C)[C@H]1CC[C@H]2[C@H](CC(=O)O)[C@@H]([C@@]3(C)CCCCC3=O)CC[C@]12C
[b] CC(C)CCCC(C)[C@H]1CC[C@H]2[C@H](CC(=O)O)[C@@H](C(C)CCCCC#N)CC[C@]12C (stereo in doubt; 21)
Identify the item whose GI50 is the smaller number: a or b Your answer should be the label attached to the chosen record.
b
(b: 5.36 µM, a: 18.8 µM)

====

System: U-251
Experiment: Growth inhibitory activity was determined against U-251 cancer cell line of CNS cancer
Assay type: functional
Assay Setup: Homo sapiens
Endpoint Name: GI50 (µM)

[P] CC(C)CCC[C@@H](C)[C@H]1CC[C@H]2[C@@H]3CC(=O)N4C(=O)C=CCC[C@]4(C)[C@H]3CC[C@]12C
[Q] CC(C)CCC[C@@H](C)[C@H]1CC[C@H]2[C@@H]3CC(=O)O[C@](C)(CCCCC(=O)O)[C@H]3CC[C@]12C
Recorded GI50 values differ for P and Q ; which one is higher? Your answer should be the label attached to the chosen record.
Q
(Q: 6.28 µM, P: 3.46 µM)

====

Target: Receptor-type tyrosine-protein phosphatase C, CD45 (Homo sapiens) (UniProt P08575)
Sequence (P08575 whole entry, looked up): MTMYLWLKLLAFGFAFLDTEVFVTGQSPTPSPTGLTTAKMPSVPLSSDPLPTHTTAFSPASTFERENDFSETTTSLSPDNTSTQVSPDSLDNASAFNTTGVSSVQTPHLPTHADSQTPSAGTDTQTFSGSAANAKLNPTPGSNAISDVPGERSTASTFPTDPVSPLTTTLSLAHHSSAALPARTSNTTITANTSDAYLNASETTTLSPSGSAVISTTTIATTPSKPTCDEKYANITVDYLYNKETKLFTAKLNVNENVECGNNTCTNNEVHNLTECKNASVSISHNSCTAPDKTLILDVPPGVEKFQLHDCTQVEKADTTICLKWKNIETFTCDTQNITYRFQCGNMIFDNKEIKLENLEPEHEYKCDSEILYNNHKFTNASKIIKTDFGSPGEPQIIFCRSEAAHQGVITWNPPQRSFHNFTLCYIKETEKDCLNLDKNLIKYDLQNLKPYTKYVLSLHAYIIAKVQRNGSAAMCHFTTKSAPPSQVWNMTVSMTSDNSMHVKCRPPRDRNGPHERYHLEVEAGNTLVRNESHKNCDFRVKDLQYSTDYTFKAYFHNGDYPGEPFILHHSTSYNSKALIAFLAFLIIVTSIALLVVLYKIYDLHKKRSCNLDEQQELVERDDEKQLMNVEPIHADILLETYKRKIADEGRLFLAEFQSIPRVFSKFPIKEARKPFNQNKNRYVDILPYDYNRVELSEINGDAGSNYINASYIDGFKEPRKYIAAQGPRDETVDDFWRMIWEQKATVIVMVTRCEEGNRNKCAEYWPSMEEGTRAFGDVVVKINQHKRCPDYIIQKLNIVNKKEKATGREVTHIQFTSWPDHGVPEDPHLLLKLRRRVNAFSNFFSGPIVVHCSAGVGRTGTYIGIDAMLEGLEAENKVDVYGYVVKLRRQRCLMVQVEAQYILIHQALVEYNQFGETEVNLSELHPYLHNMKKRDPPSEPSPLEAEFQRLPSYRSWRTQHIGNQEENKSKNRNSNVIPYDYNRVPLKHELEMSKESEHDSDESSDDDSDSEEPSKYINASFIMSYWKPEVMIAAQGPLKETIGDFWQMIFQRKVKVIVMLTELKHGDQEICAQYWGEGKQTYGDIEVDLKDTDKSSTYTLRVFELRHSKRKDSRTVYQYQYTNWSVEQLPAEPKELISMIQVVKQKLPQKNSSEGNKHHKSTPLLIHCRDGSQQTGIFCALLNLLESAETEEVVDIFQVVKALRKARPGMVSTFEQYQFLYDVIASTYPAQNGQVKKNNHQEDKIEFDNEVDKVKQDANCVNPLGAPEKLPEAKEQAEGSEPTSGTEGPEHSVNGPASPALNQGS
Experiment: Inhibitory activity tested against human CD45 receptor-type tyrosine-protein phosphatase C
Endpoint Name: IC50 (µM)

1) C/C(=C\CCCC#N)[C@H]1CC[C@]2(C)[C@@H]([C@H](C)CCCC(C)C)CC[C@H]2[C@@H]1CC(=O)O : 13.2
2) C=C(CCCCC#N)[C@H]1CC[C@]2(C)[C@@H]([C@H](C)CCCC(C)C)CC[C@H]2[C@@H]1CC(=O)O : 12.2

====

Tested on: OVCAR-3
Experiment: Growth inhibitory activity was determined against OVCAR-3 cancer cell line of Ovarian cancer
Type: functional
Assay Setup: Homo sapiens
Endpoint Name: GI50 (µM)

1) CC(C)CCCC(C)[C@H]1CC[C@H]2[C@H](CC(=O)O)[C@@H](C(C)CCCCC#N)CC[C@]12C (stereo in doubt; 21) : 5.25
2) C=C(CCCCC#N)[C@H]1CC[C@]2(C)[C@@H]([C@H](C)CCCC(C)C)CC[C@H]2[C@@H]1CC(=O)O : 6.64
3) CC(C)CCCC(C)[C@H]1CC[C@H]2[C@H](CC(=O)O)[C@@H](C(C)CCCCC#N)CC[C@]12C (stereo in doubt; 22) : 5.19

[A] CC(C)CCC[C@@H](C)[C@H]1CC[C@H]2[C@@H]3CC(=O)N4C(=O)C=CCC[C@]4(C)[C@H]3CC[C@]12C
[B] CC(C)CCCC(C)[C@H]1CC[C@H]2[C@@H]3CC(=O)O[C@](C)(CC/C=C\C#N)[C@H]3CC[C@]12C (some centres not stated)
Identify the item whose GI50 is the smaller number: A or B Your answer should be the label attached to the chosen record.
A
(A: 4 µM, B: 13.3 µM)

====

Target: M-phase inducer phosphatase 1 (Homo sapiens, UniProt P30304)
Sequence (P30304 whole entry): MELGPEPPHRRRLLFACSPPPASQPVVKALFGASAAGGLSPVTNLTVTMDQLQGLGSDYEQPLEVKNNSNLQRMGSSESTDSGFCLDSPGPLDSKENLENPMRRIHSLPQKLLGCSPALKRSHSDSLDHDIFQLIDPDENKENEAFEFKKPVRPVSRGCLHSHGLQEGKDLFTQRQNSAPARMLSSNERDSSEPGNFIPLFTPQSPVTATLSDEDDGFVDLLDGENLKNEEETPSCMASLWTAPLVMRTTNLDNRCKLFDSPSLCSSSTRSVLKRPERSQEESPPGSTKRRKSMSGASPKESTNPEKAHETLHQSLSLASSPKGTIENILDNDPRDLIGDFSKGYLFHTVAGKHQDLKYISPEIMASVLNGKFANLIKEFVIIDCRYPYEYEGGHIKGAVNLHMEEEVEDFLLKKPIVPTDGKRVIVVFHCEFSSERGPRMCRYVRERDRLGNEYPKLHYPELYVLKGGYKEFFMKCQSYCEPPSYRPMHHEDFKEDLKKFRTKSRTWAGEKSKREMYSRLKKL
Experiment: Inhibitory activity tested against cell division cycle 25A (assay using fluorescein diphosphate (FDP) as substrate)
Endpoint Name: IC50 (µM)

// known answers, use as guide
1) C/C(=C/CCCC#N)[C@H]1CC[C@]2(C)[C@@H](C(C)CCCC(C)C)CC[C@H]2[C@@H]1CC(=O)O (some centres not stated) : 2.4
2) CC(C)CCC[C@@H](C)[C@H]1CC[C@H]2[C@H](CC(=O)O)[C@@H]([C@@]3(C)CC=CCC3=O)CC[C@]12C : 5.8
3) CC(C)CCC[C@@H](C)[C@H]1CC[C@H]2[C@H](CC(=O)O)[C@@H]([C@@]3(C)CCC=CC3=O)CC[C@]12C : 9.5
4) CC(C)CCCC(C)[C@H]1CC[C@H]2[C@H](CC(=O)O)[C@@H](C(C)CCCCC#N)CC[C@]12C (stereo in doubt; 21) : 2.2

[P] CC(C)CCC[C@@H](C)[C@H]1CC[C@H]2[C@@H]3CC[C@H]4C[C@@H](OC(=S)S)CC[C@]4(C)[C@H]3CC[C@]12C
[Q] C=C(CCC(CC#N)OCC)[C@H]1CC[C@]2(C)[C@@H](C(C)CCCC(C)C)CC[C@H]2[C@@H]1CC(=O)O (some centres not stated)
[R] CC(=O)OC1CC[C@](C)([C@H]2CC[C@]3(C)[C@@H]([C@H](C)CCCC(C)C)CC[C@H]3[C@@H]2CC(=O)O)C(=O)C1 (some centres not stated)
[S] C/C(=C/C/C=C\C#N)[C@H]1CC[C@]2(C)[C@@H](C(C)CCCC(C)C)CC[C@H]2[C@@H]1CC(=O)O (some centres not stated)
[T] CC(C)CCC[C@@H](C)[C@H]1CC[C@H]2[C@@H]3CC(=O)O[C@](C)(CCCCC(=O)O)[C@H]3CC[C@]12C
Which order do these items take when sorted by rising IC50? List them. Put the labels in the order asked and list them.
P, Q, T, R, S
(P: 1.1 µM, Q: 2.9 µM, T: 5.1 µM, R: 9.3 µM, S: 36.3 µM)

====

System: HCC 2998
Experiment: Growth inhibitory activity was determined against HCC2998 cancer cell line colon cancer
Assay type: functional, Homo sapiens
Assay Setup: Homo sapiens, HCC 2998
Endpoint Name: GI50 (µM)

1. CC(C)CCCC(C)[C@H]1CC[C@H]2[C@H](CC(=O)O)[C@@H]([C@@]3(C)CC[C@@H](CC#N)O3)CC[C@]12C (some centres undefined) : 5.1
2. CC(C)CCC[C@@H](C)[C@H]1CC[C@H]2[C@@H]3CC(=O)O[C@](C)(CCCCC#N)[C@H]3CC[C@]12C : 4.71
3. CC(C)CCC[C@@H](C)[C@H]1CC[C@H]2[C@@H]3CC(=O)O[C@](C)(CCCCC(=O)O)[C@H]3CC[C@]12C : 4.43
4. C/C(=C\CCCC#N)[C@H]1CC[C@]2(C)[C@@H]([C@H](C)CCCC(C)C)CC[C@H]2[C@@H]1CC(=O)O : 4.31

====

System: NCI-H522
Experiment: Growth inhibitory activity was determined against NCI-H522 cancer cell line of non-small cell lung cancer
Type: functional
Assay Setup: Homo sapiens
Endpoint Name: GI50 (µM)

1) CC(C)CCCC(C)[C@H]1CC[C@H]2[C@H](CC(=O)O)[C@@H]([C@@]3(C)CC[C@@H](CC#N)O3)CC[C@]12C (stereo partly drawn) : 0.94

[P] C/C(=C\CCCC#N)[C@H]1CC[C@]2(C)[C@@H]([C@H](C)CCCC(C)C)CC[C@H]2[C@@H]1CC(=O)O
[Q] CC(C)CCC[C@@H](C)[C@H]1CC[C@H]2[C@@H]3CC(=O)N4C(=O)C=CCC[C@]4(C)[C@H]3CC[C@]12C
Recorded GI50 values differ for P and Q ; which one is higher? Your answer should be the label attached to the chosen record.
P
(P: 17.3 µM, Q: 6.1 µM)
